- Test system: AVEFA
- Test details: Pre-emergence herbicidal action against AVEFA
- Type: in vivo, Avena fatua
- Applied conditions: 320 g/ha, scored visually after 3 weeks vs untreated controls
Experimental endpoint: Pre-emergence action against AVEFA in % (%)

INSERT INTO results (compound, experimental_endpoint, observed_value) VALUES
  ('CC#Cc1cc(C)c(C2=C(OC(=O)C(C)C)C3(CCC(COCC)C3)NC2=O)c(OC)c1 (stereo not drawn) [Example P-60]', 'Pre-emergence action against AVEFA in %', 100),
  ('CC#Cc1cc(C)c(C2=C(O)C3(CCC(COC)C3)NC2=O)c(Br)c1 (stereo not drawn) [Example I-18]', 'Pre-emergence action against AVEFA in %', 100),
  ('C#CCOCC1CCC2(C1)NC(=O)C(c1c(F)cc(C#CC)cc1OC)=C2OC(=O)OCC (stereo not drawn) [Example P-102]', 'Pre-emergence action against AVEFA in %', 80),
  ('CC#Cc1cc(C)c(C2=C(O)C3(CCC(COCCC)C3)NC2=O)c(Cl)c1 (stereo not drawn) [Example I-71]', 'Pre-emergence action against AVEFA in %', 80),
  ('C#CCOCC1CCC2(C1)NC(=O)C(c1c(C)cc(C#CC)cc1OC)=C2O (stereo not drawn) [Example I-77]', 'Pre-emergence action against AVEFA in %', 100),
  ('CC#Cc1cc(C)c(C2=C(OC(=O)C(C)C)C3(CCC(COC)C3)NC2=O)c(Br)c1 (stereo not drawn) [Example P-33]', 'Pre-emergence action against AVEFA in %', 100),
  ('CC#Cc1cc(F)c(C2=C(OC(=O)C(C)C)C3(CCC(COCC)C3)NC2=O)c(OC)c1 (stereo not drawn) [Example P-64]', 'Pre-emergence action against AVEFA in %', 80),
  ('CC#Cc1cc(Cl)c(C2=C(OC(=O)OCC)C3(CCC(COC)C3)NC2=O)c(OC)c1 (stereo not drawn) [Example P-97]', 'Pre-emergence action against AVEFA in %', 100),
  ('CC#Cc1cc(C)c(C2=C(O)C3(CCC(COCC)C3)NC2=O)c(Br)c1 (stereo not drawn) [Example I-21]', 'Pre-emergence action against AVEFA in %', 100),
  ('CC#Cc1cc(C)c(C2=C(OC(=O)OCC)C3(CCC(COC)C3)NC2=O)c(F)c1 (stereo not drawn) [Example P-51]', 'Pre-emergence action against AVEFA in %', 80),
  ('C#CCOCC1CCC2(C1)NC(=O)C(c1c(F)cc(C#CC)cc1OC)=C2O (stereo not drawn) [Example I-75]', 'Pre-emergence action against AVEFA in %', 100),
  ('CC#Cc1cc(F)c(C2=C(OC(=O)OCC)C3(CCC(COCCC)C3)NC2=O)c(OC)c1 (stereo not drawn) [Example P-82]', 'Pre-emergence action against AVEFA in %', 90),
  ('CC#Cc1cc(Br)c(C2=C(OC(=O)OCC)C3(CCC(COCC)C3)NC2=O)c(OC)c1 (stereo not drawn) [Example P-05]', 'Pre-emergence action against AVEFA in %', 100),
  ('CC#Cc1cc(Br)c(C2=C(OC(=O)OCC)C3(CCC(COCC)C3)NC2=O)c(OCC)c1 (stereo not drawn) [Example P-95]', 'Pre-emergence action against AVEFA in %', 100),
  ('CC#Cc1cc(C)c(C2=C(O)C3(CCC(COCCC)C3)NC2=O)c(Cl)c1 (stereo not drawn) [Example I-68]', 'Pre-emergence action against AVEFA in %', 100),
  ('CC#Cc1cc(C)c(C2=C(O)C3(CCC(COCC)C3)NC2=O)c(Cl)c1 (stereo not drawn) [Example I-17]', 'Pre-emergence action against AVEFA in %', 100),
  ('CC#Cc1cc(C)c(C2=C(OC(=O)OCC)C3(CCC(COCC)C3)NC2=O)c(Cl)c1 (stereo not drawn) [Example P-28]', 'Pre-emergence action against AVEFA in %', 100),
  ('CC#Cc1cc(F)c(C2=C(O)C3(CCC(COC)C3)NC2=O)c(OC)c1 (stereo not drawn) [Example I-41]', 'Pre-emergence action against AVEFA in %', 80),
  ('CC#Cc1cc(C)c(C2=C(OC(=O)OCC)C3(CCC(COCC)C3)NC2=O)c(F)c1 (stereo not drawn) [Example P-53]', 'Pre-emergence action against AVEFA in %', 90),
  ('CC#Cc1cc(Br)c(C2=C(O)C3(CCC(COCC)C3)NC2=O)c(OCC)c1 (stereo not drawn) [Example I-64]', 'Pre-emergence action against AVEFA in %', 80),
  ('CC#Cc1cc(C)c(C2=C(OC(=O)OCC)C3(CCC(COC)C3)NC2=O)c(Br)c1 (stereo not drawn) [Example P-30]', 'Pre-emergence action against AVEFA in %', 100),
  ('CC#Cc1cc(C)c(C2=C(OC(=O)C(C)C)C3(CCC(COC)C3)NC2=O)c(F)c1 (stereo not drawn) [Example P-58]', 'Pre-emergence action against AVEFA in %', 90),
  ('CC#Cc1cc(C)c(C2=C(O)C3(CCC(COCC)C3)NC2=O)c(OC)c1 (stereo not drawn) [Example I-32]', 'Pre-emergence action against AVEFA in %', 90),
  ('CC#Cc1cc(Br)c(C2=C(O)C3(CCC(COCC)C3)NC2=O)c(OC)c1 (stereo not drawn) [Example I-05]', 'Pre-emergence action against AVEFA in %', 100),
  ('CC#Cc1cc(C)c(C2=C(OC(=O)C(C)C)C3(CCC(COC)C3)NC2=O)c(OC)c1 (stereo not drawn) [Example P-46]', 'Pre-emergence action against AVEFA in %', 100),
  ('CC#Cc1cc(C)c(C2=C(OC(=O)OCC)C3(CCC(COCC)C3)NC2=O)c(Br)c1 (stereo not drawn) [Example P-35]', 'Pre-emergence action against AVEFA in %', 100),
  ('C=CCOCC1CCC2(C1)NC(=O)C(c1c(F)cc(C#CC)cc1OC)=C2OC(=O)OCC (stereo not drawn) [Example P-77]', 'Pre-emergence action against AVEFA in %', 90),
  ('CC#Cc1cc(C)c(C2=C(OC(=O)C(C)C)C3(CCC(COCC)C3)NC2=O)c(Br)c1 (stereo not drawn) [Example P-37]', 'Pre-emergence action against AVEFA in %', 80),
  ('CC#Cc1cc(C)c(C2=C(OC(=O)C(C)C)C3(CCC(COCC)C3)NC2=O)c(F)c1 (stereo not drawn) [Example P-56]', 'Pre-emergence action against AVEFA in %', 80),
  ('C=CCOCC1CCC2(C1)NC(=O)C(c1c(C)cc(C#CC)cc1Cl)=C2O (stereo not drawn) [Example I-46]', 'Pre-emergence action against AVEFA in %', 90),
  ('C#CCOCC1CCC2(C1)NC(=O)C(c1c(F)cc(C#CC)cc1OC)=C2O (stereo not drawn) [Example I-74]', 'Pre-emergence action against AVEFA in %', 90),
  ('CC#Cc1cc(C)c(C2=C(OC(=O)OCC)C3(CCC(COCC)C3)NC2=O)c(F)c1 (stereo not drawn) [Example P-54]', 'Pre-emergence action against AVEFA in %', 90),
  ('CC#Cc1cc(F)c(C2=C(OC(=O)OCC)C3(CCC(COC)C3)NC2=O)c(OC)c1 (stereo not drawn) [Example P-62]', 'Pre-emergence action against AVEFA in %', 90);

====

- Test system: DIGSA
- Test details: Post-emergence herbicidal action against DIGSA
- Type: in vivo, Digitaria sanguinalis
- Applied conditions: 80 g/ha, visual assessment about 3 weeks after treatment vs untreated controls
Experimental endpoint: Post-emergence action against DIGSA in % (%)

INSERT INTO results (compound, system_tested, unit_descriptor, observed_value) VALUES
  ('CC#Cc1cc(C)c(C2=C(OC(=O)OCC)C3(CCC(COCCC)C3)NC2=O)c(Cl)c1 (stereo not drawn) [Example P-86]', 'DIGSA', '%', 90),
  ('CC#Cc1cc(C)c(C2=C(OC(=O)C(C)C)C3(CCC(COCC)C3)NC2=O)c(OC)c1 (stereo not drawn) [Example P-50]', 'DIGSA', '%', 90),
  ('C#CCOCC1CCC2(C1)NC(=O)C(c1c(C)cc(C#CC)cc1Cl)=C2OC(=O)OCC (stereo not drawn) [Example P-100]', 'DIGSA', '%', 90),
  ('CC#Cc1cc(C)c(C2=C(O)C3(CCC(COCCC)C3)NC2=O)c(Cl)c1 (stereo not drawn) [Example I-68]', 'DIGSA', '%', 100),
  ('CC#Cc1cc(F)c(C2=C(OC(=O)OCC)C3(CCC(COC)C3)NC2=O)c(OC)c1 (stereo not drawn) [Example P-62]', 'DIGSA', '%', 100),
  ('CC#Cc1cc(Cl)c(C2=C(OC(=O)C(C)C)C3(CCC(COCC)C3)NC2=O)c(CC)c1 (stereo not drawn) [Example P-07]', 'DIGSA', '%', 100),
  ('CC#Cc1cc(C)c(C2=C(OC(=O)OCC)C3(CCC(COCCC)C3)NC2=O)c(OC)c1 (stereo not drawn) [Example P-83]', 'DIGSA', '%', 100),
  ('C#CCOCC1CCC2(C1)NC(=O)C(c1c(F)cc(C#CC)cc1OC)=C2OC(=O)OCC (stereo not drawn) [Example P-104]', 'DIGSA', '%', 90),
  ('CC#Cc1cc(C)c(C2=C(OC(=O)C(C)C)C3(CCC(COCC)C3)NC2=O)c(Br)c1 (stereo not drawn) [Example P-37]', 'DIGSA', '%', 100),
  ('CC#Cc1cc(C)c(C2=C(OC(=O)OCC)C3(CCC(COCC)C3)NC2=O)c(Br)c1 (stereo not drawn) [Example P-34]', 'DIGSA', '%', 100),
  ('CC#Cc1cc(Br)c(C2=C(O)C3(CCC(COCC)C3)NC2=O)c(OC)c1 (stereo not drawn) [Example I-05]', 'DIGSA', '%', 100),
  ('CC#Cc1cc(C)c(C2=C(OC(=O)C(C)C)C3(CCC(COCC)C3)NC2=O)c(Cl)c1 (stereo not drawn) [Example P-29]', 'DIGSA', '%', 100),
  ('CC#Cc1cc(C)c(C2=C(OC(=O)OCC)C3(CCC(COC)C3)NC2=O)c(Cl)c1 (stereo not drawn) [Example P-24]', 'DIGSA', '%', 100),
  ('C#Cc1cc(Cl)c(C2=C(O)C3(CCC(COC)C3)NC2=O)c(OC)c1 (stereo not drawn) [Example I-13]', 'DIGSA', '%', 100),
  ('CC#Cc1cc(Cl)c(C2=C(O)C3(CCC(COC)C3)NC2=O)c(OC)c1 (stereo not drawn) [Example I-72]', 'DIGSA', '%', 100);

All figures here come from patent US20220386606A1.
